molecular target: UniProtKB P00734; test: Inhibition of amidase activity of thrombin (Kass); assay type: biochemical; settings: mean over a range of concentrations; […]
Counter-ions that a name gives are not always drawn.

- Compound: "N=C(N)NCCCCNC(=O)[C@@H]1CCCN1C(=O)[C@@H]1NCC[C@H]2CCCC[C@H]21 [Example 61, trihydrochloride]"
  Target of assay: "UniProtKB P00734"
  Kass Human Thrombin: "63 × 10^6 (L/mole)"
- Compound: "O=C(O)CN[C@H](CC1CCCCC1)C(=O)N1CCC[C@H]1C(=O)NCC1CCNCC1"
  Target of assay: "UniProtKB P00734"
  Kass Human Thrombin: "0.36 × 10^6 (L/mole)"
- Compound: "Nc1ccc(CNC(=O)[C@@H]2CCCN2C(=O)[C@@H](CC2CCCCC2)NCC(=O)O)cc1"
  Target of assay: "UniProtKB P00734"
  Kass Human Thrombin: "7.6 × 10^6 (L/mole)"
- Compound: "O=C(O)CN[C@H](CC1CCCCC1)C(=O)N1CCC[C@H]1C(=O)NCCCC1CCNCC1"
  Target of assay: "UniProtKB P00734"
  Kass Human Thrombin: "0.01 × 10^6 (L/mole)"
- Compound: "O=C(O)CN[C@H](CC1CCCCC1)C(=O)N1CCC[C@H]1C(=O)NCCC1CCNCC1"
  Target of assay: "UniProtKB P00734"
  Kass Human Thrombin: "2.8 × 10^6 (L/mole)"
- Compound: "N=C(N)c1ccc(CCNC(=O)[C@@H]2CCCN2C(=O)[C@@H]2NCC[C@@H]3CCCC[C@@H]32)cc1"
  Target of assay: "UniProtKB P00734"
  Kass Human Thrombin: "0.95 × 10^6 (L/mole)"
- Compound: "N=C(N)c1ccc(CNC(=O)[C@@H]2CCCN2C(=O)[C@@H](CCC2CCCCC2)NCC(=O)O)cc1"
  Target of assay: "UniProtKB P00734"
  Kass Human Thrombin: "410 × 10^6 (L/mole)"

---

molecular target: factor Xa (Homo sapiens); construct: Human factors X, Xa, IXa, XIa, and XIIa are purchased; purchased Enzyme Research Laboratories, South Bend, Ind; assay: Kass with factor Xa, chromogenic substrate; format: biochemical; settings: substrate N-Benzoyl-Ile-Glu-Gly-Arg-p-nitroanilide
Sequence (P00742 235-488 limits assumed): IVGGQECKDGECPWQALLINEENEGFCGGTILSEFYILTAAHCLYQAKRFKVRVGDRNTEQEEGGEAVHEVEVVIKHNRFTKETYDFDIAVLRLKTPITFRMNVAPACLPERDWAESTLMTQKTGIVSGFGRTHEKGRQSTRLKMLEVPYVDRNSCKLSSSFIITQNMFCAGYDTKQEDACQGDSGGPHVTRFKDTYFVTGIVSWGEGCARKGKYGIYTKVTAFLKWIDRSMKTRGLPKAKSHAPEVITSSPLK
Sequence (P00742 41-179 partner limits assumed): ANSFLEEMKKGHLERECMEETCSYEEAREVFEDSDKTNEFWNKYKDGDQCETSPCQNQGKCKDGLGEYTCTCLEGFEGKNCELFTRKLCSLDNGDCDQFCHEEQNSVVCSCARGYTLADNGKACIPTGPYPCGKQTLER
Counter-ions that a name gives are not always drawn.

- Molecule: "N=C(N)c1ccc(CNC(=O)[C@@H]2CCCN2C(=O)[C@@H](CCC2CCCCC2)NCC(=O)O)cc1"
  Kass Xa: "3.9 × 10^6 (L/mole)"
- Molecule: "N=C(N)Nc1cccc(CCNC(=O)[C@@H]2CCCN2C(=O)[C@@H]2NCC[C@@H]3CCCC[C@@H]32)c1"
  Kass Xa: "< 0.001 × 10^6 (L/mole)"
- Molecule: "N=C(N)c1cccc(CNC(=O)[C@@H]2CCCN2C(=O)[C@H](N)Cc2ccccc2)c1 [Example 16, D-Phe-Pro-m-NHCH2 C6 H4 C(NH)NH2.0.75HCl]"
  Kass Xa: "0.0051 × 10^6 (L/mole)"
- Molecule: "O=C(O)CN[C@H](CC1CCCCC1)C(=O)N1CCC[C@H]1C(=O)NCCCC1CCNCC1"
  Kass Xa: "< 0.001 × 10^6 (L/mole)"
- Molecule: "N=C(N)c1ccc(CCNC(=O)[C@@H]2CCCN2C(=O)[C@@H]2NCC[C@@H]3CCCC[C@@H]32)cc1"
  Kass Xa: "0.01 × 10^6 (L/mole)"
- Molecule: "CCS(=O)(=O)N[C@H](Cc1ccccc1)C(=O)N1CCC[C@H]1C(=O)NCc1cccc(NC(=N)N)c1"
  Kass Xa: "< 0.001 × 10^6 (L/mole)"
- Molecule: "CCOC(=O)N[C@H](Cc1ccccc1)C(=O)N1CCC[C@H]1C(=O)NCCCCNC(=N)N [Example 3, EtOCO-D-Phe-Pro-Agm.HCl]"
  Kass Xa: "0.0021 × 10^6 (L/mole)"
